value.type: melting point

Example entries and their recorded answers appear below.
| molecule | melting point |
| --- | --- |
| COC(=O)c1c(-c2ccc(Cl)o2)noc1-c1ccccc1 | 113 to 117 °C (dec.) |
| OCc1onc(-c2ccc(Cl)o2)c1-c1ccccc1 | 102 to 103 °C |
| FC(F)(F)c1onc(-c2ccc(Cl)o2)c1-c1ccccc1 | 55 to 57 °C |
| Cc1onc(-c2ccco2)c1-c1ccccc1 | 93 to 96 °C |
| O=C(OCCCO[N+](=O)[O-])c1onc(-c2ccc(Cl)o2)c1-c1ccccc1 | 79 to 79.8 °C |

Report melting point for `Cc1onc(-c2ccc(Cl)o2)c1-c1ccc(F)cc1` please.
103.7 to 105.2 °C

Report melting point for CC1(O)ON=C(c2ccc(Cl)o2)C1c1ccc(F)cc1 (stereo not drawn) please.
101 to 102 °C

Report melting point for `O=C(O)c1onc(-c2ccc(Cl)o2)c1-c1ccccc1` please.
168 to 170 °C

Report melting point for `O=C(OCCCBr)c1onc(-c2ccc(Cl)o2)c1-c1ccccc1` please.
100 to 101 °C

Report melting point for `COC(=O)c1onc(-c2ccc(Cl)o2)c1-c1ccccc1` please.
130 to 131 °C

Report melting point for `O=C(OCCCN1CCOCC1)c1onc(-c2ccc(Cl)o2)c1-c1ccccc1` please.
82 to 83.7 °C

Report melting point for `Cc1onc(-c2ccc(Br)o2)c1-c1ccccc1` please.
93 to 96 °C
